experimentNotes: clinical
conditionNotes: human, in vivo, iv, Vdss
Each entry gets 0 if its Vd stays under 2 L/kg, and 1 if its Vd is 2 L/kg or above.

INPUT: Does the reported Vd for CO/N=C(\C(=O)N[C@@H]1C(=O)N2C(C(=O)O)=C(COC(N)=O)CS[C@H]12)c1ccco1 [CEFUROXIME] fall at or above the 2 L/kg mark?
OUTPUT: 0

INPUT: Does the reported Vd for COc1cc2c(N)nc(N3CCN(C(=O)OCC(C)(C)O)CC3)nc2c(OC)c1OC [TRIMAZOSIN] fall at or above the 2 L/kg mark?
OUTPUT: 0

INPUT: Does the reported Vd for CCC(=O)O[C@](Cc1ccccc1)(c1ccccc1)[C@H](C)CN(C)C [PROPOXYPHENE] fall at or above the 2 L/kg mark?
OUTPUT: 1

INPUT: Does the reported Vd for CCCNC(=O)NS(=O)(=O)c1ccc(Cl)cc1 [CHLORPROPAMIDE] fall at or above the 2 L/kg mark?
OUTPUT: 0

INPUT: Does the reported Vd for C=CCC1(C(C)C#CCC)C(=O)N=C(O)N(C)C1=O (stereo unspecified) [METHOHEXITAL] fall at or above the 2 L/kg mark?
OUTPUT: 0

INPUT: Does the reported Vd for CN(C)[C@@H]1C(O)=C(C(N)=O)C(=O)[C@@]2(O)C(O)=C3C(=O)c4c(O)ccc(Cl)c4[C@@H](O)[C@H]3C[C@@H]12 [DEMECLOCYCLINE] fall at or above the 2 L/kg mark?
OUTPUT: 0

INPUT: Does the reported Vd for CS(=O)(=O)OCCCCOS(C)(=O)=O [BUSULFAN] fall at or above the 2 L/kg mark?
OUTPUT: 0

INPUT: Does the reported Vd for Cc1nccn1CC1CCc2c(c3ccccc3n2C)C1=O (stereo unspecified) [ONDANSETRON] fall at or above the 2 L/kg mark?
OUTPUT: 0

INPUT: Does the reported Vd for CN[C@H]1C(=O)N[C@@H]2Cc3ccc(cc3)Oc3cc4cc(c3O[C@@H]3O[C@H](C(=O)O)[C@@H](O)[C@H](O)[C@H]3NC(=O)CCCCCCCCC(C)C)Oc3ccc(cc3Cl)[C@@H](O)[C@@H]3NC(=O)[C@H](NC(=O)[C@@H]4NC(=O)[C@@H](NC2=O)c2cc(cc(O)c2Cl)Oc2cc1ccc2O)c1ccc(O)c(c1)-c1c(O[C@H]2O[C@H](CO)[C@@H](O)[C@H](O)[C@@H]2O)cc(O)cc1[C@@H](C(=O)NCCCN(C)C)NC3=O [DALBAVANCIN] fall at or above the 2 L/kg mark?
OUTPUT: 0

INPUT: Does the reported Vd for CC[C@]1(O)C[C@H]2CN(CCc3c([nH]c4ccccc34)[C@@](C(=O)OC)(c3cc4c(cc3OC)N(C=O)[C@H]3[C@@](O)(C(=O)OC)[C@H](OC(C)=O)[C@]5(CC)C=CCN6CC[C@]43[C@@H]65)C2)C1 [VINCRISTINE] fall at or above the 2 L/kg mark?
OUTPUT: 1

INPUT: Does the reported Vd for CN/C(=N/CCSCc1nc[nH]c1C)NC#N [CIMETIDINE] fall at or above the 2 L/kg mark?
OUTPUT: 0

INPUT: Does the reported Vd for CN(C)CCCN1c2ccccc2CCc2cc(O)ccc21 [2-HYDROXYIMIPRAMINE] fall at or above the 2 L/kg mark?
OUTPUT: 1

INPUT: Does the reported Vd for CC(=O)[C@]1(O)Cc2c(O)c3c(c(O)c2[C@@H](O[C@H]2C[C@H](N)[C@H](O)[C@H](C)O2)C1)C(=O)c1ccccc1C3=O [IDARUBICIN] fall at or above the 2 L/kg mark?
OUTPUT: 1

INPUT: Does the reported Vd for c1ccc(C2(N3CCCCC3)CCCCC2)cc1 [PHENCYCLIDINE] fall at or above the 2 L/kg mark?
OUTPUT: 1

INPUT: Does the reported Vd for CC1COc2c(N3CCN(C)CC3)c(F)cc3c(=O)c(C(=O)O)cn1c23 (stereo unspecified) [OFLOXACIN] fall at or above the 2 L/kg mark?
OUTPUT: 0

INPUT: Does the reported Vd for CC(=O)N[C@H]1[C@H]([C@H](O)[C@H](O)CO)OC(C(=O)O)=C[C@@H]1N=C(N)N [ZANAMIVIR] fall at or above the 2 L/kg mark?
OUTPUT: 0

INPUT: Does the reported Vd for CC(C)NCC(O)COc1cccc2[nH]ccc12 (stereo unspecified) [PINDOLOL] fall at or above the 2 L/kg mark?
OUTPUT: 0

INPUT: Does the reported Vd for Cc1ccnc2c1NC(=O)c1cccnc1N2C1CC1 [NEVIRAPINE] fall at or above the 2 L/kg mark?
OUTPUT: 0

INPUT: Does the reported Vd for Clc1ccc2nsnc2c1NC1=NCCN1 [TIZANIDINE] fall at or above the 2 L/kg mark?
OUTPUT: 1

INPUT: Does the reported Vd for O=C(Cc1cccs1)N[C@@H]1C(=O)N2C(C(=O)[O-])=C(C[n+]3ccccc3)CS[C@H]12 [CEPHALORIDINE] fall at or above the 2 L/kg mark?
OUTPUT: 0

INPUT: Does the reported Vd for CCCn1c(=O)[nH]c(=O)c2[nH]cnc21 [ENPROFYLLINE] fall at or above the 2 L/kg mark?
OUTPUT: 0

INPUT: Does the reported Vd for CNCCCC12CCC(c3ccccc31)c1ccccc12 [MAPROTILINE] fall at or above the 2 L/kg mark?
OUTPUT: 1

INPUT: Does the reported Vd for CN(C)C(=O)Oc1cc(OC(=O)N(C)C)cc(C(O)CNC(C)(C)C)c1 (stereo unspecified) [BAMBUTEROL] fall at or above the 2 L/kg mark?
OUTPUT: 0

INPUT: Does the reported Vd for CNC(=O)c1c(I)c(NC(C)=O)c(I)c(C(=O)O)c1I [IOTHALAMIC ACID] fall at or above the 2 L/kg mark?
OUTPUT: 0

INPUT: Does the reported Vd for C[C@@](O)(/C=C/[C@H]1CC=CC(=O)O1)[C@@H](C[C@@H](O)\C=C/C=C\C=C\CO)OP(=O)(O)O [FOSTRIECIN] fall at or above the 2 L/kg mark?
OUTPUT: 0

INPUT: Does the reported Vd for CN(C)C(=O)Oc1cccc([N+](C)(C)C)c1.[Br-] [NEOSTIGMINE BROMIDE] fall at or above the 2 L/kg mark?
OUTPUT: 0

INPUT: Does the reported Vd for CC(C)(O/N=C(\C(=O)N[C@@H]1C(=O)N2C(C(=O)[O-])=C(C[n+]3ccccc3)CS[C@H]12)c1csc(N)n1)C(=O)O [CEFTAZIDIME] fall at or above the 2 L/kg mark?
OUTPUT: 0

INPUT: Does the reported Vd for CCS(=O)(=O)CCn1c([N+](=O)[O-])cnc1C [TINIDAZOLE] fall at or above the 2 L/kg mark?
OUTPUT: 0

INPUT: Does the reported Vd for CC1=C(C(=O)O)N2C(=O)[C@@H](NC(=O)[C@H](N)c3ccc(O)cc3)[C@H]2SC1 [CEFADROXIL] fall at or above the 2 L/kg mark?
OUTPUT: 0

INPUT: Does the reported Vd for CN(Cc1cnc2nc(N)nc(N)c2n1)c1ccc(C(=O)N[C@@H](CCC(=O)O)C(=O)O)cc1 [METHOTREXATE] fall at or above the 2 L/kg mark?
OUTPUT: 0

INPUT: Does the reported Vd for O=C(CCCN1CCC(O)(c2ccc(Cl)cc2)CC1)c1ccc(F)cc1 [HALOPERIDOL] fall at or above the 2 L/kg mark?
OUTPUT: 1

Hey, just so you know, these numbers are from ChEMBL document CHEMBL1614632.
